- Test system: uninfected MT2 cells
- Protocol Summary: Compound cytotoxicity, XTT-based colorimetric assay
- Type: cell-based
- Reported Conditions: uninfected MT2 cells, day 4, XTT
Measure Name: CC50

Need CC50, item C[C@@H]1CN(c2ccc3c(=O)n(-c4ccc(Cl)c5c(NS(C)(=O)=O)nn(CC(F)F)c45)c([C@H](Cc4cc(F)cc(F)c4)NC(=O)Cn4nc(C(F)F)c5c4C(F)(F)[C@@H]4C[C@H]54)nc3c2)C[C@H](C)O1 [Example 8]
> 500 nM

* * *

The following compounds are listed with their measured CC50 at 4 days values.
- Protocol Summary: Compound cytotoxicity, XTT-based colorimetric assay
- Type: cell-based
- Reported Conditions: human; uninfected MT2 cells, day 4, XTT; read-out: CC50

Compound | CC50 at 4 days
Cn1nc(NS(C)(=O)=O)c2c(Cl)ccc(-n3c([C@H](Cc4cc(F)cc(F)c4)NC(=O)Cn4nc(C(F)F)c5c4C(F)(F)[C@@H]4C[C@H]54)nc4cc(N5CC(S(C)(=O)=O)C5)ccc4c3=O)c21 (atropisomer, axis not shown; (P)) [Example 26] | > 500 nM
Cn1nc(NS(C)(=O)=O)c2c(Cl)ccc(-n3c([C@H](Cc4cc(F)cc(F)c4)NC(=O)Cn4nc(C(F)F)c5c4C(F)(F)[C@@H]4C[C@H]54)nc4cc(N5CCC(O)CC5)ccc4c3=O)c21 (atropisomer, axis not shown; (P)) [Example 24] | > 500 nM
CCCS(=O)(=O)Nc1nn(C)c2c(-n3c([C@H](Cc4cc(F)cc(F)c4)NC(=O)Cn4nc(C(F)F)c5c4C(F)(F)[C@@H]4C[C@H]54)nc4cc(N5CCOCC5)ccc4c3=O)ccc(Cl)c12 (atropisomer, axis not shown; (P)) [Example 66] | > 500 nM

Need CC50 at 4 days, item Cn1nc(NS(C)(=O)=O)c2c(Cl)ccc(-n3c([C@H](Cc4cc(F)cc(F)c4)NC(=O)Cn4nc(C(F)F)c5c4C(F)(F)[C@@H]4C[C@H]54)nc4cc(N5CCC5)ccc4c3=O)c21 (atropisomer, axis not shown; (P)) [Example 18]
> 1000 nM

Now consider COC[C@@H]1CCCN1c1ccc2c(=O)n(-c3ccc(Cl)c4c(NS(C)(=O)=O)nn(C)c34)c([C@H](Cc3cc(F)cc(F)c3)NC(=O)Cn3nc(C(F)F)c4c3C(F)(F)[C@@H]3C[C@H]43)nc2c1 (atropisomer, axis not shown; (P)) [Example 3] .
> 500 nM

Now consider Cn1nc(NS(C)(=O)=O)c2c(Cl)ccc(-n3c([C@H](Cc4cc(F)cc(F)c4)NC(=O)Cn4nc(C(F)F)c5c4C(F)(F)[C@@H]4C[C@H]54)nc4cc(N5CC=CC5)ccc4c3=O)c21 (atropisomer, axis not shown; (P)) [Example 31] .
> 500 nM

Now consider Cn1nc(NS(C)(=O)=O)c2c(Cl)ccc(-n3c([C@H](Cc4cc(F)cc(F)c4)NC(=O)Cn4nc(C(F)F)c5c4C(F)(F)[C@@H]4C[C@H]54)nc4cc(N5CCOC(C)(C)C5)ccc4c3=O)c21 (atropisomer, axis not shown; (P)) [Example 4] .
> 500 nM

Now consider O=C(Cn1nc(C(F)F)cc1C(F)F)N[C@@H](Cc1cc(F)cc(F)c1)c1nc2cc(N3CCOCC3)ccc2c(=O)n1-c1ccc(Cl)c2c(NS(=O)(=O)C3CC3)nn(CC(F)F)c12 (atropisomer, axis not shown; (P)) [Example 36] .
> 1000 nM
